# subject_of_test: T1, His-tagged human HER3 antigen (human, UniProt P21860 20-643)
# T1 construct: Soluble antigen used as analyte in SPR; not shown: His tag
# run_description: SPR, Biacore 8K; antibody captured, His-tagged human HER3 antigen 6.25-400 nM as analyte; 1:1 Langmuir
measured_endpoint: Kd (nM)

Antibody A N93Q (antibody, human IgG1, kappa, V domains shown, Differs from antibody A only by N to Q at position 93 of VL) VH: QVQLVQSGGGLVQPGRSLRLSCAASGFTFDDYAMHWVRQAPGKGLEWVSGISWNSGSIGYADSVKGRFTISRDNAKNSLYLQMNSLRAEDTALYYCAKEGLPGLDYWGQGTLVTVSS VL: DIQMTQSPSSLSASIGDRATITCRASQHVGTYLNWYQQKPGKTPKLLISGAANLQSGVPSRFSGSGSGTDFTLTISSLQPEDFATYYCQQSYQTPPFSFGQGTKVEIKR = 51.4
Antibody A T94V (antibody, human IgG1, kappa, V domains shown, Differs from antibody A only by T to V at position 94 of VL) VH: QVQLVQSGGGLVQPGRSLRLSCAASGFTFDDYAMHWVRQAPGKGLEWVSGISWNSGSIGYADSVKGRFTISRDNAKNSLYLQMNSLRAEDTALYYCAKEGLPGLDYWGQGTLVTVSS VL: DIQMTQSPSSLSASIGDRATITCRASQHVGTYLNWYQQKPGKTPKLLISGAANLQSGVPSRFSGSGSGTDFTLTISSLQPEDFATYYCQQSYNVPPFSFGQGTKVEIKR = 15
